- Test system: MS2 coat protein
- test_name: apparent KD of MS2 coat protein; designed switch direction (-1 OFF switch, 1 ON switch): -1; higher = weaker reporter binding
- test_settings: input ligand: none
reported_endpoint: apparent KD of MS2 coat protein (nM)
Give your result in nM as a bare value.

>>> test_value("AGGUAGUCAGGAUAUUAAGAGUAGCGGGAUAACGCUACGAGUGAGAAGGGACAUGAGGAUCACCCAUGUUUUUU [JR_Ex4_Sub072] (Eterna round: R97, puzzle: Exclusion 4)")
22.5

Query string: So what does the record say about apparent KD of MS2 coat protein for UUGUUAUAUGAAGGAUAUACUUAACAUGAGGAUCACCCAUGUGGUGUUGUGAGUGAGUGAGUUUAGUAGAAGGUCAAGUAUUUU [JMF's solution 52] (Eterna round: R96, puzzle: Exclusion NG 2) ?
Result string: 377

Query string: So what does the record say about apparent KD of MS2 coat protein for AUCAGCUCGUCAGGAUAUACAUGAGGAUCACCCAUGUGAUCAAUAGCAGCUUCGGCUGCAUACAUGUAGAAGGGACGAGCUGAU [ENG2/6-B3] (Eterna round: R96, puzzle: Exclusion NG 2) ?
Result string: 821

Query string: So what does the record say about apparent KD of MS2 coat protein for GGAUAUAAGUCAGGAUAUGAGCGCAACUGACGAUCAGAAGGGACACAUGAGGAUCACCCAUGUGAUCUAUCAAUAUUAUACAUG [Prohibition 93 - Jieux - Exclusion NG 1] (Eterna round: R96, puzzle: Exclusion NG 1) ?
Result string: 22.4

Query string: So what does the record say about apparent KD of MS2 coat protein for CCUCUGUGAGGAUAUUGGCAACACUGCACCCAAUAAAGCGCCGAGAAGGCACAUGAGGAUCACCCAUGUACGCA [Eternabot (L1) Solution 66] (Eterna round: R97, puzzle: Exclusion 4) ?
Result string: 18.4

Every entry's value here was drawn from the supplement of paper PMC9170038.
